Some variants, each annotated with its measured protein stability index.
B1: ZNF207 (parent)
chain: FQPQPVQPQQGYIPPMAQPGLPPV

variants of: B1; test: protein stability index of a GFP-peptide fusion (GPS, HEK-293T) (PSI 1-6); higher = more stable; conditions: c terminus: a fixed tail appended;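 also: lentivirally expressed fusions sorted by FACS into six bins by GFP to DsRed ratio, PSI derived from sequencing read proportions per bin multiplied by bin number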
The response must contain the number and no unit.

> print(dat)
   mutation.code  reported.result
1            Q4S             3.21
2            P3Y             3.13
3           A17L             2.85
4            V6W             2.62
5           P15G             3.07
6           P22G             2.74

# protein stability index (variant: I13V ) is 3.44

# protein stability index (variant: I13A ) is 3.8

# protein stability index (variant: V6C ) is 2.89

# protein stability index (variant: F1E ) is 4.36

# protein stability index (variant: V6K ) is 3.08

# protein stability index (variant: Q18R ) is 3.37

# protein stability index (variant: F1Y ) is 3.61

# protein stability index (variant: Y12H ) is 3.54

# protein stability index (variant: G11W ) is 2.19

# protein stability index (variant: P14E ) is 2.86

# protein stability index (variant: Q2R ) is 3.46

# protein stability index (variant: P3A ) is 3.48

Cited source: the supplement of paper PMC10567573
